Data credit: patent US20180208680A1

experimental-target: T1, BoNT/C1 holotoxin (Clostridium botulinum, UniProt P18640 2-1291)
T1 sequence: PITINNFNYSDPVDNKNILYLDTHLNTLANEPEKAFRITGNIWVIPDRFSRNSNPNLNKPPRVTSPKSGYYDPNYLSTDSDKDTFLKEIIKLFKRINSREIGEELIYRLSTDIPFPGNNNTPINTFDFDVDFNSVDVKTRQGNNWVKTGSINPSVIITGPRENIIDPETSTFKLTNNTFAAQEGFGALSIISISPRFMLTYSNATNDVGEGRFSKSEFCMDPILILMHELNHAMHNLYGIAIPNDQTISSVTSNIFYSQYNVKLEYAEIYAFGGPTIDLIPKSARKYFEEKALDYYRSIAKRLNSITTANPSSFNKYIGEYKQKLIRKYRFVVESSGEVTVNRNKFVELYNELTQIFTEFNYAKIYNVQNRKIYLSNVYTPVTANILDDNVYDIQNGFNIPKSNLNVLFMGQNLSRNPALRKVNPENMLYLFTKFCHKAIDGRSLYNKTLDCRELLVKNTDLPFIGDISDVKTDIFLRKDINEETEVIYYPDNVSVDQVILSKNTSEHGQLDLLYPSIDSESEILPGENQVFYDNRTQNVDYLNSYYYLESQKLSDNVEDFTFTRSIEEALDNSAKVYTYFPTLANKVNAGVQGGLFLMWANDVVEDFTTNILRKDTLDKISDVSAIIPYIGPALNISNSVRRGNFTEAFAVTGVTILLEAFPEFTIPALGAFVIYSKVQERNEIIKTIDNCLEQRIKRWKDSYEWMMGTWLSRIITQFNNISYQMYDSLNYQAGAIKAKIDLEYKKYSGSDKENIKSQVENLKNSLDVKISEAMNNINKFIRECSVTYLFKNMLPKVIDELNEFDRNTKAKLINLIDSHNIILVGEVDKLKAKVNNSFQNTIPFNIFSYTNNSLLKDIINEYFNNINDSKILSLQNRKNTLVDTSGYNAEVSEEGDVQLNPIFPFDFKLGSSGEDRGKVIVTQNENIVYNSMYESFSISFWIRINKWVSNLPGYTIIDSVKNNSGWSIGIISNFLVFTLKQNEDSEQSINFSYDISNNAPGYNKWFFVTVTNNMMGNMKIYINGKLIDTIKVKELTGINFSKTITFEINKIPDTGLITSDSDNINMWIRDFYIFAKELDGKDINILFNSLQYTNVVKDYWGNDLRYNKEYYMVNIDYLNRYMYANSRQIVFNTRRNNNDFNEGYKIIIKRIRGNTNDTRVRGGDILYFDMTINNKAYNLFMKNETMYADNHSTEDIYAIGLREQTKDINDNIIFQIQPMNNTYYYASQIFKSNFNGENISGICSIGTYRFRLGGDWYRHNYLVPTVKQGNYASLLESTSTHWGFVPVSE
method: IgG KinExA

binder	Kd [nM]
4C4 IgG (antibody, V domains shown) VH: QVQLVESGPGLVKPSQTLSLTCSVSGASINNSPYFWNWFRQFPGKGLEWIGYIYWSGSTNYNPSLKSRLAMSVDTSKNQFSLKLTSATAADTAVYYCARDQGGGTVVKENWFDPWGQGTLVTVSS VL: DIVMTQSPSSLSASVGDRLTMTCQASQDIGKHLNWYQQKAGKPPKLLIYGASNLKTGVPSRFSAGVSWTDFTFTISNVQPEDVATYYCQQSYSTPPTFGQGTKVEIK	0.835
